Provide the reported ED50 of each item.
# assayNotes: Catalepsy (drug-induced catalepsy)
# Assay type: in vivo
# measurementSetup: rat, in vivo, po, rats; read-out: Catalepsy Induction ED50

// worked examples, ED50 included
>  <compound>
O=C1CSCC(=O)N1CCCCN1CCN(c2nccc3sccc23)CC1

>  <val>
> 128 mg/kg

$$$$
>  <compound>
CC1(C)CC(=O)N(CCCCN2CCN(c3nccc4sccc34)CC2)C(=O)C1

>  <val>
> 24 mg/kg

$$$$
>  <compound>
OC(CCCN1CCN(c2nccc3sccc23)CC1)c1ccc(F)cc1 (centres unmarked)

>  <val>
> 40 mg/kg

$$$$

Below is a list of compounds. For each, state its recorded ED50.
1. Cc1cc2c(N3CCN(CCCCN4C(=O)SC5(CCCC5)C4=O)CC3)nccc2s1
2. O=C1COCC(=O)N1CCCCN1CCN(c2nccc3occc23)CC1

### Response
["> 142 mg/kg", "> 46 mg/kg"]
